Measured values drawn from patent EP3509566B1 for this set.

assay method text: Cell viability assay (calcein method)
Format: cell-based, human
measurement context: human, epidermal melanocytes, 25 µM, 72 hours, Table 1; 100 = 0.25% DMSO; read-out: % Viability
experimental endpoint: viability at 72 h, 25 µM (%)
Response body: numeric value in %, unit text excluded.

Observe how each entry below is paired with its result.
molecule | viability at 72 h, 25 µM (%)
CC(Cc1c[nH]c2ccccc12)NC(=O)OCCCl (stereo not drawn) [Compound #1] | 95
CC(=O)O.CC(Cc1c[nH]c2ccccc12)NC(=O)CN (stereo not drawn) [Compound #3, acetate] | 111

Give the reported value of viability at 72 h, 25 µM for this record: CC(=O)NC(C)Cc1c[nH]c2ccccc12 (stereo not drawn) [Compound #2, reference compound] 98

---

assay method text: Cell viability assay (calcein method)
Type: cell-based, human
measurement context: human, epidermal melanocytes, % Viability
experimental endpoint: viability at 72 h, 250 µM (%)
Give just the numeric value; % need not be written.

Fill in reported viability at 72 h, 250 µM for this entry: O=c1cc(CO)occ1O [Kojic acid, reference compound] 96

---

assay method text: Cell viability assay (calcein method)
Format: cell-based, human
measurement context: human, epidermal melanocytes, 6.25 µM, 72 hours, Table 2, fresh batch
experimental endpoint: viability at 72 h, 6.25 µM (%)
Report only the number, with the unit % understood.

Tell me viability at 72 h, 6.25 µM reported for CC(Cc1c[nH]c2ccccc12)NC(=O)OCCCl (stereo not shown) 96.6

---

assay method text: Cell viability assay (calcein method)
Format: cell-based, human
measurement context: human, epidermal melanocytes, 50 µM, 72 hours, Table 2, fresh batch
experimental endpoint: viability at 72 h, 50 µM
Answer format: value, then unit.

For the molecule CC(Cc1c[nH]c2ccccc12)NC(=O)OCCCl (stereo not shown) , report viability at 72 h, 50 µM. 88.3%

---

assay method text: Cell viability assay (calcein method)
Type: cell-based, human
measurement context: human, epidermal melanocytes, 3.125 µM, 72 hours, Table 2, fresh batch
experimental endpoint: viability at 72 h, 3.125 µM (%)
Report the figure in % without appending any unit label.

Provide one value: measured viability at 72 h, 3.125 µM of CC(Cc1c[nH]c2ccccc12)NC(=O)OCCCl (stereo not shown) 94

---

assay method text: Cell viability assay (calcein method)
Type: cell-based, human
measurement context: human, epidermal melanocytes, 12.5 µM, 72 hours, Table 2, fresh batch
Method: A set of indolyl compounds were purchased from SIGMA-ALDRICH as stocks of 10 mM in 100% DMSO. They were initially examined at 25 uM concentration in cell culture (Table 1) for their ability to reduce melanin content and then, at different doses (Table 2). […] At the end of the incubation period, the cell viability was determined using the calcein method. […] Percentage Melanin content was calculated as the ratio between OD405nm value of any sample to that of DMSO reference sample.
experimental endpoint: viability at 72 h, 12.5 µM (%)
Response body: numeric value in %, unit text excluded.

State its viability at 72 h, 12.5 µM for this compound: CC(Cc1c[nH]c2ccccc12)NC(=O)OCCCl (stereo not shown) 93.4

---

assay method text: Cell viability assay (calcein method)
Type: cell-based, human
measurement context: human, epidermal melanocytes, % Viability
experimental endpoint: viability at 72 h, 500 µM (%)
Report as a plain number; the unit % is understood.

Answer with the recorded viability at 72 h, 500 µM of O=c1cc(CO)occ1O [Kojic acid, reference compound] only. 96

---

assay method text: Cell viability assay (calcein method)
Assay type: cell-based, human
measurement context: human, epidermal melanocytes, 25 µM, 72 hours, Table 2, fresh batch; read-out: % Viability
Procedure: A set of indolyl compounds were purchased from SIGMA-ALDRICH as stocks of 10 mM in 100% DMSO. They were initially examined at 25 uM concentration in cell culture (Table 1) for their ability to reduce melanin content and then, at different doses (Table 2). […] At the end of the incubation period, the cell viability was determined using the calcein method. […] Percentage Melanin content was calculated as the ratio between OD405nm value of any sample to that of DMSO reference sample.
experimental endpoint: viability at 72 h, 25 µM (%)
Numeric answer only, unit % assumed.

Dear colleague, please send me the reported viability at 72 h, 25 µM for CC(Cc1c[nH]c2ccccc12)NC(=O)OCCCl (stereo not shown) when you can. 93.7
